- Study system: UniProt P42338
- Protocol notes: PI3K isoform TR-FRET enzymatic assay (PI3Kβ)
- Stated conditions: 2× Km ATP, 30 minutes at 25° C.
- Experimental: The compounds of formula (I) were characterized for their enzymatic activity against the PI3K isoforms. The activities were measured using a time-resolved fluorescence resonance energy transfer (TR-FRET) assay. TR-FRET monitored the formation of 3,4,5-inositol triphosphate molecule that competed with fluorescently labeled PIP3 for binding to the GRP-1 pleckstrin homology domain protein. Class I PI3K isoforms were expressed and purified as heterodimeric recombinant proteins. […]
Observable: IC50

Here is how some compounds turned out for IC50.
Cc1nc2c(-c3ccccc3)cc(N3CCOCC3)cc2n1-c1ccnc2c(-c3ccccc3)cccc12 ... 967 nM
Cc1nnc(-c2cc(N3CCOCC3)cc3c2nc(C)n3-c2ccnc3c(Cl)cc(F)cc23)[nH]1 ... 63 nM

# get_value(readout= IC50, system= UniProt P42338) for Cc1nc2c(-c3nnc[nH]3)cc(N3CCOCC3)cc2n1-c1ccnc2c(F)c(F)ccc12 [Example 142] 15 nM

# get_value(readout= IC50, system= UniProt P42338) for Clc1ncc(-c2cc(N3CCOCC3)cc3c2nc(CC2CC2)n3-c2ccnc3c(Cl)cccc23)[nH]1 20 nM

# get_value(readout= IC50, system= UniProt P42338) for Fc1ccc(F)c2c(-n3cnc4c(-c5cnc(Cl)[nH]5)cc(N5CCOCC5)cc43)ccnc12 6 nM

# get_value(readout= IC50, system= UniProt P42338) for CCCc1nc2c(-c3nnc(C)[nH]3)cc(N3CCOCC3)cc2n1-c1ccnc2c(Cl)ccc(F)c12 42 nM

# get_value(readout= IC50, system= UniProt P42338) for CCc1nc2ccccc2c(-n2c(C)nc3c(-c4nnc[nH]4)cc(N4CCOCC4)cc32)c1C 27 nM

----------
Here the recorded pIC50 is given for each entry.
- Study system: PI3Kβ (Homo sapiens (Human), UniProt P42338)
- Sequence (P42338 whole entry, canonical isoform): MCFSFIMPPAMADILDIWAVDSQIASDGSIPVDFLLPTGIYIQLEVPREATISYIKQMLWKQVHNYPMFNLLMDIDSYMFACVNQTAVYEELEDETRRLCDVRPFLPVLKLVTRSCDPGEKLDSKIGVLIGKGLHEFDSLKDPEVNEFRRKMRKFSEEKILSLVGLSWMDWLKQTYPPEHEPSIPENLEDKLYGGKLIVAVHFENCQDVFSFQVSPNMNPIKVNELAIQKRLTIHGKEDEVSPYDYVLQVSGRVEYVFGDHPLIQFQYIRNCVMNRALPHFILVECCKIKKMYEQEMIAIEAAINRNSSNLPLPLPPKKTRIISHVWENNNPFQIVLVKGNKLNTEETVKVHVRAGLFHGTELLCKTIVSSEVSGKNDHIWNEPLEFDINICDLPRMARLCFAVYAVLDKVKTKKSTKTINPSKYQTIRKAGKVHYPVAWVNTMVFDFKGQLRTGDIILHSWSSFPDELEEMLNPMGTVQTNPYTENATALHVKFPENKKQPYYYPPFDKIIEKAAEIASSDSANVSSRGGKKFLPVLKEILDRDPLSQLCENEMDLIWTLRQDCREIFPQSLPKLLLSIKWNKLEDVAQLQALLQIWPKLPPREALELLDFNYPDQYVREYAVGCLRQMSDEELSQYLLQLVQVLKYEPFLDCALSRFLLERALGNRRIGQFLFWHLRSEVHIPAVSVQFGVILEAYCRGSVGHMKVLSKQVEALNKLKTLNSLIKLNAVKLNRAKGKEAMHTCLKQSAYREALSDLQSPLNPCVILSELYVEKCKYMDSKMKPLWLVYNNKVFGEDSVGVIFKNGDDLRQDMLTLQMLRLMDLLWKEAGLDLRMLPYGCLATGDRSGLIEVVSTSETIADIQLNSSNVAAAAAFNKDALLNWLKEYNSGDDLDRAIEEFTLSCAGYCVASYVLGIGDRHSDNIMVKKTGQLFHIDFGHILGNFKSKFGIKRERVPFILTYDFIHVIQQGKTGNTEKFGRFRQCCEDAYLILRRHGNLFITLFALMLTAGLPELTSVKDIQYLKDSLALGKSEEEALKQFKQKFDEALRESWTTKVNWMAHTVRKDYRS
- Sequence (P27986 whole entry partner, canonical isoform): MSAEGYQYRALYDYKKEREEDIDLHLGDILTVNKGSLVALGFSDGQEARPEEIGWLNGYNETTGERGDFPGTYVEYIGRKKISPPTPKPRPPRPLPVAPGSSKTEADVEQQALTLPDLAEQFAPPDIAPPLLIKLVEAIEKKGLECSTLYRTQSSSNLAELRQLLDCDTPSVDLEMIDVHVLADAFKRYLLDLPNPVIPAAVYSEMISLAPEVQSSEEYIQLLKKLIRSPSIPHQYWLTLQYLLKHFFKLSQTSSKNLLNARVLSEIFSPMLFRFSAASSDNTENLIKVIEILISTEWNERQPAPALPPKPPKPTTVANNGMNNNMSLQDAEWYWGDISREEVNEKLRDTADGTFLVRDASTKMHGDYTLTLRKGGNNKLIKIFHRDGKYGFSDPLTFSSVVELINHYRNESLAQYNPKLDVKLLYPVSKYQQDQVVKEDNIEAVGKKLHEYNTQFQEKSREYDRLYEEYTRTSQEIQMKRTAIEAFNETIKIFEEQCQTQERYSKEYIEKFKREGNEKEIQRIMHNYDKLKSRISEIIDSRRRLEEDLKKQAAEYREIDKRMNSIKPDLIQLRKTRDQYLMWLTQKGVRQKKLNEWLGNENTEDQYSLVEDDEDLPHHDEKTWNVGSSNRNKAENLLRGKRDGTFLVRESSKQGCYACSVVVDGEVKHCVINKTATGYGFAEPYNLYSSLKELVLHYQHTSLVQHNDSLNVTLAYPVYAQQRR
- Protocol notes: PI3K isoform TR-FRET enzymatic assay (PI3Kβ)
- Stated conditions: 2× Km ATP, 30 minutes at 25° C.
Reminder that pIC50 is minus the log10 of a molar concentration.

CC(C)Cc1nc2c(-c3ncco3)cc(N3CCOCC3)cc2n1-c1ccnc2c(F)ccc(F)c12 ... 8.10
CCc1nc2c(-c3nnc[nH]3)cc(N3CCOCC3)cc2n1-c1c(Cl)cnc2c(Cl)cccc12 ... 7.89
Cc1nc2c(-c3cccnc3)cc(N3CCOCC3)cc2n1-c1ccnc2c(Cl)cccc12 ... 6.16
Cc1nc2c(-c3nnc[nH]3)cc(N3CCOCC3)cc2n1-c1ccnc2cccc(Cl)c12 ... 7.77
Cc1nc2c(-c3cnn[nH]3)cc(N3CCOCC3)cc2n1-c1ccnc2c(Cl)cccc12 ... 8.15

Recorded pIC50 of Cc1nnc(-c2cc(N3CCOCC3)cc3c2ncn3-c2ccnc3c(Cl)c(F)ccc23)[nH]1 , please. 7.66

Recorded pIC50 of Cc1nc2c(-c3nnc[nH]3)cc(N3CCOCC3)cc2n1-c1c(Cl)cnc2c(Cl)cccc12 , please. 7.92

----------
- Study system: PI3Kβ (Homo sapiens (Human), UniProt P42338)
- Protocol notes: PI3K isoform TR-FRET enzymatic assay (PI3Kβ)
- Stated conditions: 2× Km ATP, 30 minutes at 25° C.
Rule: IC50 below 20 nM gives class 1, anything at or above gives class 0.

# strict comparison: is reported IC50 < 20 nM? input = Cc1nc2c(-c3ccn(S(C)(=O)=O)c3)cc(N3CCOCC3)cc2n1-c1ccnc2c(Cl)cccc12 class 0
